B1: INTS3 (parent)
chain: AQLQALRQKEVDFCISLLRERFME

Variants of: B1
Assay: protein stability index of a GFP-peptide fusion (GPS, HEK-293T) (PSI 1-6); higher = more stable;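 note: lentivirally expressed fusions sorted by FACS into six bins by GFP to DsRed ratio, PSI derived from sequencing read proportions per bin multiplied by bin number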
Conditions: c terminus: a fixed tail appended
Lab note: class by protein stability index, see 1: < 2; 2: ≥ 2 and < 3; 3: ≥ 3

# input Which class is correct for the following variant? "Q2N"
# output 3

More entries:
# input Please indicate the class for "I15S" based on its protein stability index.
# output 1

# input Lookup "S16M"
# output 3

# input Request: "R19K"
# output 1

# input Record: "L18M"
# output 3
